test.system: dCK-C3S-S74E (Homo sapiens, UniProt P27707, C45S/C59S/C9S/S74E)
Sequence (P27707 whole entry C9S/C45S/C59S/S74E): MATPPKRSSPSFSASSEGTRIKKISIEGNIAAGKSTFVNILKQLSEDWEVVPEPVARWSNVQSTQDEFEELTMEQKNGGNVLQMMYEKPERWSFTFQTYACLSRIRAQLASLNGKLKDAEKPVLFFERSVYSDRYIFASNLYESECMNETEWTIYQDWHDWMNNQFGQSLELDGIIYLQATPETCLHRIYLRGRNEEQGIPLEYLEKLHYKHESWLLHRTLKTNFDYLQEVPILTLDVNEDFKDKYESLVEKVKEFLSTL
experiment: Isothermal titration calorimetry (ITC)
pKd: −log10 of the molar value.
endpoint.label: pKd

# item.smiles, number
measured = [
    ("Nc1ncn([C@H]2C[C@H](O)[C@@H](CO)O2)c(=O)n1", 4.51),
    ("Nc1ccn([C@@H]2O[C@H](CO)[C@@H](O)C2(F)F)c(=O)n1", 4.65),
]
